Reported Conditions: both, human, plasma, oral, C max, substrate alone; geometric mean (CV%)
Quantity Kind: Cmax (ng/mL)
# output: bare number, implied unit ng/mL

Query :: Look up Cmax: COc1ccc2c(c1)[C@]13CCCC[C@@H]1[C@H](C2)N(C)CC3
Result :: 1.24

Query :: Data request, read-out Cmax, for Cc1ncc2n1-c1ccc(Cl)cc1C(c1ccccc1F)=NC2
Result :: 8.78

---

Protocol: clinical
Reported Conditions: both, human, plasma, oral, 50 mg
Kindly state half-life for each of the entries shown.
A number alone suffices; assume h.

Query :: Param item = Cn1c(=O)c2c(ncn2C)n(C)c1=O [Caffeine, caffeine] ; retrieve measured half-life.
Result :: 7.39

Query :: Name the reported half-life value associated with the compound Cc1ncc2n1-c1ccc(Cl)cc1C(c1ccccc1F)=NC2 [Midazolam, midazolam]
Result :: 4.81

---

For each of the compounds below, state its AUC(0-inf).
Protocol: clinical
Reported Conditions: both, human, plasma, oral, 50 mg
Give the quantity in ng·h/mL, number only.

Query :: What measured AUC(0-inf) goes with Cn1c(=O)c2c(ncn2C)n(C)c1=O ?
Result :: 41900

Query :: Form field: reported AUC(0-inf) of COc1ccc2[nH]c([S+]([O-])Cc3ncc(C)c(OC)c3C)nc2c1 (centres unmarked)
Result :: 885
